Taken from ChEMBL document CHEMBL4699634.

Subject Of Test: PCSK9/LDLR (Homo sapiens)
Sequence (Q8NBP7 31-152 limits assumed): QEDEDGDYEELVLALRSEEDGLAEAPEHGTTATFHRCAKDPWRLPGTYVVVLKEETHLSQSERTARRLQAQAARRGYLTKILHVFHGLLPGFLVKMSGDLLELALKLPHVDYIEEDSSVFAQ
Sequence (Q8NBP7 153-692 limits assumed): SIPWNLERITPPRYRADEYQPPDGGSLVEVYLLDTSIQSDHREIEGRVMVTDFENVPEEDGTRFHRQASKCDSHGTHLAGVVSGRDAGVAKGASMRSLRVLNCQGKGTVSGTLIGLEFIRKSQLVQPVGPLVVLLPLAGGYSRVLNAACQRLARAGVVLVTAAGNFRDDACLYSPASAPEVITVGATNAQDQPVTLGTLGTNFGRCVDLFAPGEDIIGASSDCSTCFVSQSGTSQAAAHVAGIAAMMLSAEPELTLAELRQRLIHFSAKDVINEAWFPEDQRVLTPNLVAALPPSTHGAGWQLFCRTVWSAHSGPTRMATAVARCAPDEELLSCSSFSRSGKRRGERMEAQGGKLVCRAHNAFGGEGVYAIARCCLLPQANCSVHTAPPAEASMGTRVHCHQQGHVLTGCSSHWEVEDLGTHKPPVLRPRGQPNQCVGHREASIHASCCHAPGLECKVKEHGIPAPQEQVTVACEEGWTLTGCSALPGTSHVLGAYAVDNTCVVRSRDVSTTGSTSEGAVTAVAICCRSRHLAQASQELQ
Sequence (P01130 22-860 partner limits assumed): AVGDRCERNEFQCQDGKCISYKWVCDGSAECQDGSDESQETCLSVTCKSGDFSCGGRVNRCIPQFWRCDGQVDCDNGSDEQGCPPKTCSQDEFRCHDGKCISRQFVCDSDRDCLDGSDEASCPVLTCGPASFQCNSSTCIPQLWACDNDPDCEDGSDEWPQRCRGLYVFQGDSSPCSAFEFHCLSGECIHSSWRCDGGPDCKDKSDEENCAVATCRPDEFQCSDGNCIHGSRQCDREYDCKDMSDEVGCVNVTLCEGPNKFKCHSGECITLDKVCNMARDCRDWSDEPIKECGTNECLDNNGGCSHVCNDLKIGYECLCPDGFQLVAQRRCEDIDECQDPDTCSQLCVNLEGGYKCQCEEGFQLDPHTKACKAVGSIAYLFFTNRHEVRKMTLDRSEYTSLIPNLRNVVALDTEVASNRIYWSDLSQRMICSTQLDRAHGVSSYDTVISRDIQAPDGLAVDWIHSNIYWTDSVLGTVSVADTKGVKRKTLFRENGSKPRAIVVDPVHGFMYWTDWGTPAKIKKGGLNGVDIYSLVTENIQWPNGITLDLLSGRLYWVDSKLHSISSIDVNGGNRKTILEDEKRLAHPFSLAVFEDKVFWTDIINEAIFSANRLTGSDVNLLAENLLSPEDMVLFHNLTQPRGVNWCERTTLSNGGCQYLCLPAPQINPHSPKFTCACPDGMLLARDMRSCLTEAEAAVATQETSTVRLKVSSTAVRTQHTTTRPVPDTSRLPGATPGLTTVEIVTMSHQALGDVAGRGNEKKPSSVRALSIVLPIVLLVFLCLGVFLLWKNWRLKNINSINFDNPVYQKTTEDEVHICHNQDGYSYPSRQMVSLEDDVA
Test Method Notes: Inhibition of avi-tagged-biotinylated human PCSK9 interaction with His-tagged human LDLR EGFa domain by LANCE Ulight Streptavidin based TR-FRET assay
Numbered stars: 1 amine (or outer) side, 2 acyl side, 3 side chain; on linkers, the order of the positions; unused ones are H or OH. Bridge positions count the residues as written; N and C are the ends. Square brackets hold non-standard residues; d marks the D form. Peptide text beside a SMILES is read from it. Trp(5-F) = N[C@@H](Cc1c[nH]c2ccc(F)cc12)C(=O)O; mXylylene = c1cc(C[*:1])cc(C[*:2])c1; Mpa = O=C(O)CCS; Sar = CNCC(=O)O
Entries and their pKi values follow.
pKi is a log-scale quantity: -log10 of the concentration expressed in molar.

C[C@H](O)[C@H]1NC(=O)[C@H](CCCCN)NC(=O)CCSCc2cccc(c2)CSCCNC(=O)[C@]2(C)CCCN2C(=O)[C@H](Cc2ccc(O)cc2)NC(=O)[C@H](Cc2cnc[nH]2)NC(=O)[C@H](CC(=O)O)NC(=O)[C@H](Cc2c[nH]c3ccc(F)cc23)NC(=O)[C@H](Cc2c[nH]c3ccc(F)cc23)NC1=O ... 7.57

Req: Sample CN1CC(=O)N[C@H](C(N)=O)CSCc2cccc(c2)CSCCC(=O)N[C@@H](CCCCN)C(=O)NCC(=O)N[C@@H](Cc2c[nH]c3ccc(F)cc23)C(=O)N[C@@H](Cc2c[nH]c3ccc(F)cc23)C(=O)N[C@@H](CC(=O)O)C(=O)N[C@@H](Cc2cnc[nH]2)C(=O)N[C@@H](Cc2ccc(O)cc2)C1=O ([Mpa]KG[Trp(5-F)][Trp(5-F)]DHY[Sar]C-NH2; linker 1-10 via mXylylene) — what was its pKi?
Resp: 4.97

###

Test Method Notes: Cytotoxicity against Wistar rat isolated peritoneal cells assessed as reduction in cell viability up to 60 uM measured after 30 mins
Type: cell-based
Study Conditions: peritoneal macrophage cell, 0.5 h
Numbered stars: 1 amine (or outer) side, 2 acyl side, 3 side chain; on linkers, the order of the positions; unused ones are H or OH. Square brackets hold non-standard residues; d marks the D form. Peptide text beside a SMILES is read from it. Trp(5-F) = N[C@@H](Cc1c[nH]c2ccc(F)cc12)C(=O)O; Lys(Me3) = C[N+](C)(C)CCCC[C@H](N)C(=O)O; Nle(6-COOH) = N[C@@H](CCCCC(=O)O)C(=O)O; X1 = O=C(CCSCc1cccc(CSCCN[*:1])c1)[*:2]; αMeP = C[C@@]1(C(=O)O)CCCN1
Outcome Measure: Activity

COc1ccc(C[C@@H]2NC(=O)[C@H](Cc3cnc[nH]3)NC(=O)[C@H](CC(=O)O)NC(=O)[C@H](Cc3c[nH]c4ccc(F)cc34)NC(=O)[C@H](Cc3c[nH]c4ccc(F)cc34)NC(=O)[C@@H](C)NC(=O)[C@H](CCCCO)NC(=O)CCSCc3cccc(c3)CSCCNC(=O)[C@]3(C)CCCN3C2=O)cc1 ... Non-Toxic
COc1ccc(C[C@@H]2NC(=O)[C@H](Cc3cnc[nH]3)NC(=O)[C@H](CC(=O)O)NC(=O)[C@H](Cc3c[nH]c4ccc(F)cc34)NC(=O)[C@H](Cc3c[nH]c4ccc(F)cc34)NC(=O)[C@@H](C)NC(=O)[C@H](CCCCC(=O)O)NC(=O)CCSCc3cccc(c3)CSCCNC(=O)[C@]3(C)CCCN3C2=O)cc1 (cyclo(DHY(Me)[αMeP][X1][Nle(6-COOH)][dA][Trp(5-F)][Trp(5-F)])) ... Non-Toxic
COc1ccc(C[C@@H]2NC(=O)[C@H](Cc3cnc[nH]3)NC(=O)[C@H](CC(=O)O)NC(=O)[C@H](Cc3c[nH]c4ccc(F)cc34)NC(=O)[C@H](Cc3c[nH]c4ccc(F)cc34)NC(=O)[C@@H](C)NC(=O)[C@H](CCCC[N+](C)(C)C)NC(=O)CCSCc3cccc(c3)CSCCNC(=O)[C@]3(C)CCCN3C2=O)cc1 (cyclo(DHY(Me)[αMeP][X1][Lys(Me3)][dA][Trp(5-F)][Trp(5-F)])) ... Non-Toxic
